TARGET_SYSTEM: human recombinant Aurora A (Homo sapiens (Human))
Sequence (O14965 whole entry): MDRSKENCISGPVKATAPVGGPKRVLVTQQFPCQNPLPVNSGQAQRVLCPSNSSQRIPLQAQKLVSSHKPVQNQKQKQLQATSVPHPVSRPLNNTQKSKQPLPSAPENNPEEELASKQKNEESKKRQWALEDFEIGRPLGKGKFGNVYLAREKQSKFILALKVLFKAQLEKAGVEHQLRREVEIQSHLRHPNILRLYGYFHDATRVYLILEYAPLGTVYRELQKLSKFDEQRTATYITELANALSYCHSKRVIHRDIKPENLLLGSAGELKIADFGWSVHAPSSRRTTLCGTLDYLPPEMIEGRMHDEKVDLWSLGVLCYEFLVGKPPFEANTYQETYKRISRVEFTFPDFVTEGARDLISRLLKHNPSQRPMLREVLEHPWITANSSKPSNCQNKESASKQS
ASSAY_INFO: Aurora A Kinase Biochemical Assay (ADP-Glo)
SETTINGS: ratio of Aurora A IC50 to PLK4 IC50 (selectivity)
MEASURED_ENDPOINT: [Aurora A IC50 (nM)]/[PLK4 IC50 (nM)]

Consider the reported [Aurora A IC50 (nM)]/[PLK4 IC50 (nM)] for these molecules:
COc1cnc(C)nc1Nc1n[nH]c2cc([C@@H]3C[C@@]34C(=O)Nc3ccc(F)cc34)ccc12 [Example 133]: 43.3910
COc1cnc(C)nc1Nc1n[nH]c2c(F)c([C@@H]3C[C@@]34C(=O)Nc3ccc(F)cc34)ccc12 [Example 142]: 13.818
COc1ccc2c(c1)[C@]1(C[C@H]1c1ccc3c(Nc4cc(C(=O)N(C)C)ncc4OC)n[nH]c3c1)C(=O)N2 [Example 198]: 5752.4160
COc1ccc2c(c1)[C@]1(C[C@H]1c1ccc3c(Nc4cn(C)nc4C)n[nH]c3c1)C(=O)N2 [Example 63]: 56.84

P = COc1ccc2c(c1)[C@]1(C[C@H]1c1ccc3c(Nc4ncnc(N5CC(O)C5)c4Cl)n[nH]c3c1)C(=O)N2C [Example 107]
Q = COc1ccc2c(c1)[C@]1(C[C@H]1c1ccc3c(Nc4cc(OC)ncn4)n[nH]c3c1)C(=O)N2 [Example 14]
R = COc1cnc(C)nc1Nc1n[nH]c2cc([C@@H]3C[C@@]34C(=O)Nc3ccccc34)ccc12 [Example 124]
S = COc1ccc2c(c1)[C@]1(C[C@H]1c1ccc3c(Nc4ncncc4C)n[nH]c3c1)C(=O)N2 (racemic) [Example 2]
Sort low-to-high on [Aurora A IC50 (nM)]/[PLK4 IC50 (nM)], please. Provide the labels, sequenced as the question asks.
R, Q, S, P

a = COc1ccc2c(c1)[C@]1(C[C@H]1c1ccc3c(Nc4ccc(C(=O)N(C)C(C)C)nc4OC)n[nH]c3c1)C(=O)N2 [Example 194]
b = CCOc1cc(S(C)(=O)=O)ncc1Nc1n[nH]c2cc([C@@H]3C[C@@]34C(=O)Nc3ccc(OC)cc34)ccc12 [Example 279]
// returns a or b , whichever has the lower [Aurora A IC50 (nM)]/[PLK4 IC50 (nM)] I would appreciate it if you answered with the label of your choice.
a
